test system: HOP-92 NSCLC; test: NCI tumour cell line growth inhibition, 48 h; in the data active = GI50 below about 0.43 µM; inactive = the rest
Outcome field: choose from T = active, F = inactive

[[record]]
molecule = "Cc1cc(O)cc2c1[C@]1(C)CCC3C(C)(C)CCC[C@]3(C)[C@H]1C2 (stereo not given in full)"
label = "F"

[[record]]
molecule = "O=S(=O)(NCCCNc1nccc(-c2c(-c3ccc(F)c(O)c3)nc3sccn23)n1)c1ccc(F)cc1"
label = "F"

[[record]]
molecule = "CNC(=O)c1ccc(N2C(=S)N(c3ccc(C#N)c(C(F)(F)F)c3)C(=O)C2(C)C)cc1F"
label = "F"

[[record]]
molecule = "C[C@]12CC[C@H](OC3OC(CO)C(O)C(O)C3O)C[C@H]1CC[C@@H]1[C@@H]2CC[C@]2(C)[C@@H](C3=CCOC3=O)CC[C@]12O (stereo not given in full)"
label = "F"

[[record]]
molecule = "Cc1ccc(Cc2cnc(NC(=O)/C=C/c3cccc(C)c3)s2)cc1"
label = "T"


Req: Which outcome was entered for the molecule Cc1nc2sc(C(=O)Nc3cccc4ccccc34)c(N)c2cc1C(O)c1ccccc1 (stereo not given) in this test?
Resp: F

Req: Which outcome was entered for the molecule COc1cc(N2CCC(N3CCN(C)CC3)CC2)ccc1Nc1ncnc(Nc2ccccc2S(=O)(=O)C(C)C)n1 in this test?
Resp: F

Req: Which outcome was entered for the molecule CC(C)[O-].CC(C)[O-].O=C1C=C([O-])C(=O)c2ccccc21.O=C1C=C([O-])C(=O)c2ccccc21.[Ti+4] in this test?
Resp: F

Req: Which outcome was entered for the molecule COc1ccc(/C(COc2ccc3c(=O)c(-c4ccccc4)coc3c2)=N\O)cc1 in this test?
Resp: F

Req: Which outcome was entered for the molecule CC1=C(C(=O)Nc2ccc(Cl)c(Cl)c2)C(c2cccc(Cl)c2)NC(=O)N1 (stereo not given) in this test?
Resp: F

All figures here come from PubChem BioAssay (NCI).
